Source listed as the supplement of paper PMC9170038.

Test system: MS2 coat protein
test.method.notes: apparent KD of MS2 coat protein; designed switch direction (-1 OFF switch, 1 ON switch): 1; higher = weaker reporter binding
condition.description: input ligand: microRNA oligo, concentration not stated
Ranges used to classify apparent KD of MS2 coat protein: lower segment: < 20 nM; middle segment: ≥ 20 nM and < 100 nM; upper segment: ≥ 100 nM

input_sequence="GGAGCCGGUACUGAGGAUAUUCAUAUUAAAACAUGAGGAUCACCCAUGUGGGCCAGAAGGCCUUGGGAGAAGGCAGACCAGCUCG [Atgexeedri - 3] (Eterna round: R96, puzzle: Same State 2)" group_label="upper segment"
input_sequence="ACAUGAAAUUUAGGAUAUUUUGUACCUACAUGUGACAUGAGGAUCACCCAUGUGGUAAGUAUGAGAAAGAAGGAAAAGAUAUGU [Equivalence 9 - Jieux - Same State NG 2] (Eterna round: R96, puzzle: Same State NG 2)" group_label="middle segment"
input_sequence="GCAACUCGUAGAGGAUAUGUCCAGCAAGUAUCACAUGAGGAUCACCCAUGUUCAGCUCUACACCUGCAGAAGGCUAUUAGUGCA [Eternabot solution 46] (Eterna round: R96, puzzle: Same State NG 2)" group_label="lower segment"
input_sequence="CAUACGCGGAGAGGAUAUCGCAGGGUAACGGUAAGUGCCCGAUGACAUGAGGAUCACCCAUGUAUCGAGAAGGCUCCUCACCCU [Eternabot solution 22] (Eterna round: R96, puzzle: Same State NG 2)" group_label="lower segment"
input_sequence="UUUAAACAUGAGGAUCACCCAUGUUUUUUUAUGGGAGGAUAUCUAAGUUAAUUAUAUUAAGGAGAAGGCCUAUUUU (Eterna round: R96, puzzle: Same State 1)" group_label="upper segment"
input_sequence="GGAGCCGGCCUAGGAUAUUUCAUAACAAAACAUGAGGAUCACCCAUGUAGGCCAGAAGGCCUUGGGAAGAAGGAGGUCGGCUCC [Loop Effect - C26] (Eterna round: R96, puzzle: Same State NG 2)" group_label="lower segment"
input_sequence="UUCGAGUUGCAAGGAUAUCUUAUUUAGAUUUUAAGAGAAGGUGCUUCACAGCUACAUGAGGAUCACCCAUGUCUUUCUUCUUAU [JR_SSNG1_Sub064] (Eterna round: R96, puzzle: Same State NG 1)" group_label="middle segment"
input_sequence="GCCGUAUACAUGAGGAUCACCCAUGUUGACGCGAGAGUGGAUGAGGAUAUCGAUGGGUUUCCCGUCGAGAAGGCGUGGGUCGGC [JL SSNG3 3.00] (Eterna round: R96, puzzle: Same State NG 3)" group_label="middle segment"
input_sequence="AGUAUACAUGAGGAUCACCCAUGUCUGUAACGGACAGGAUAUGCGUUGCAUCACUGUAAUGCAGAAGGGUCCUGUA [Same State 1 - Mod of JMF's solution 1 v.2] (Eterna round: R96, puzzle: Same State 1)" group_label="upper segment"
input_sequence="GUGCUCGUGUAAGGAUAUGCAGCCGUUUCGGCUGCAGAAGGUACUAUAAUACAUGAGGAUCACCCAUGUCUCUAUAAUUUGGUG [salish99_SSNG1_r04_904] (Eterna round: R96, puzzle: Same State NG 1)" group_label="upper segment"
input_sequence="GAGUGGCAGUUAGGAUAUAUAGUGAUAAUGACAAUAGAAGGAACAGACAUGAGGAUCACCCAUGUAGGACUAAUCCAGAGAGAG [Parity 36 - Jieux - Same State NG 1] (Eterna round: R96, puzzle: Same State NG 1)" group_label="middle segment"
